test system: HIV-IIIb IN T174I BT; experiment: Antiviral assay in MT4 cells, HIV-IIIb IN T174I BT virus (from viral breakthrough); assay type: cell-based, HIV-1; settings: Human immunodeficiency virus 1, IIIB, MT4, 120 h, read-out: T174I BT EC50, MT4 cells, HIV-IIIb IN T174I BT (viral breakthrough), 5 days, CellTiter-Glo
pEC50: −log10 of the molar value.
Test Readout: pEC50

INSERT INTO measurements (molecule, observed_value) VALUES
  ('Cc1cc2nc(-c3ccc4c(c3)c(C3CCN(C5CC(F)(F)C5)CC3)nn4C)sc2c(-c2ccc(Cl)cc2)c1[C@H](OC(C)(C)C)C(=O)O [Compound 155]', 6.04),
  ('CC(=O)N1CC(N2CCC(c3cn(C)c4ncc(-c5nc6cc(C)c([C@H](OC(C)(C)C)C(=O)O)c(-c7ccc(Cl)cc7)c6s5)nc34)CC2)C1 [Compound 200]', 7.05),
  ('CCOC(=O)N1CC(N2CCC(c3nn(C)c4ncc(-c5nc6cc(C)c([C@H](OC(C)(C)C)C(=O)O)c(-c7ccc(Cl)cc7)c6s5)cc34)CC2)C1 [Compound 115]', 5.80);

###

system: HIV-IIIb IN T174I DE; assay: Antiviral assay in MT4 cells, HIV-IIIb IN T174I DE virus (from dose escalation passaging); assay type: cell-based, HIV-1; settings: Human immunodeficiency virus 1, IIIB, MT4, 120 h, read-out: T174I DE EC50, MT4 cells, HIV-IIIb IN T174I DE (dose escalation), 5 days, CellTiter-Glo
Catalogue of EC50 readings, one per entry.
Test Readout: EC50

INSERT INTO measurements (compound, observed_value) VALUES
  ('Cc1cc2nc(-c3ccc4c(c3)c(C3CCN(C5(C)COC5)CC3)nn4C)sc2c(-c2ccc(Cl)cc2)c1[C@H](OC(C)(C)C)C(=O)O', '542 nM'),
  ('Cc1cc2nc(-c3ccc4c(c3)c(C3CCN(C5CC(O)C5)CC3)nn4C)sc2c(-c2ccc(Cl)cc2)c1[C@H](OC(C)(C)C)C(=O)O (stereo partly drawn)', '197 nM'),
  ('Cc1cc2nc(-c3ccc4c(c3)c(C3CCN(C5CC5)CC3)nn4C)sc2c(-c2ccc(Cl)cc2)c1[C@H](OC(C)(C)C)C(=O)O', '511 nM'),
  ('Cc1cc2nc(-c3ccc4c(c3)c(N3CCN5C(=O)COC[C@H]5C3)nn4C)sc2c(-c2ccc(Cl)cc2)c1[C@H](OC(C)(C)C)C(=O)O', '736 nM'),
  ('Cc1cc2nc(-c3cnc4c(c3)c(C3CCN(C5COC5)CC3)nn4C)sc2c(-c2ccc(Cl)cc2)c1[C@H](OC(C)(C)C)C(=O)O', '1520 nM'),
  ('CC(=O)N1CC[C@H](N2CCC(c3nn(C)c4ccc(-c5nc6cc(C)c([C@H](OC(C)(C)C)C(=O)O)c(-c7ccc(Cl)cc7)c6s5)cc34)CC2)C1', '166 nM');

###

tested on: HIV-IIIb (wildtype); assay: Antiviral assay in MT4 cells, HIV-IIIb wildtype; format: cell-based, HIV-1; conditions: Human immunodeficiency virus 1, IIIB, MT4, 120 h, read-out: WT EC50
pEC50: −log10 of the molar value.
Test Readout: pEC50

INSERT INTO assay_data (compound, observed_value) VALUES
  ('Cc1cc2nc(-c3ccc4c(c3)c(C3CN(C5COC5)C3)nn4C)sc2c(-c2ccc(Cl)cc2)c1[C@H](OC(C)(C)C)C(=O)O [Compound 59]', 8.10),
  ('COC(=O)N1CC(N2CCC(c3cnn4ccc(-c5nc6cc(C)c([C@H](OC(C)(C)C)C(=O)O)c(-c7ccc(Cl)cc7)c6s5)nc34)CC2)C1 [Compound 110]', 8.70),
  ('[2H]C([2H])([2H])n1nc(C2CCN(C3CN(C(C)=O)C3)CC2)c2nc(-c3nc4cc(C)c([C@H](OC(C)(C)C)C(=O)O)c(-c5ccc(Cl)cc5)c4s3)ccc21 [Compound 192]', 9.00),
  ('Cc1cc2nc(-c3ccc4c(c3)c(N3CC5(CN(C)C5)C3)nn4C)sc2c(-c2ccc(Cl)cc2)c1[C@H](OC(C)(C)C)C(=O)O [Compound 89]', 6.97),
  ('Cc1cc2nc(-c3ccc4c(c3)c(C3CCN(C[C@@H]5CCN5C)CC3)nn4C)sc2c(-c2ccc(Cl)cc2)c1[C@H](OC(C)(C)C)C(=O)O [Compound 149]', 7.96),
  ('CC(=O)N1CC[C@H](N2CCC(c3nn(C)c4ccc(-c5nc6cc(C)c([C@H](OC(C)(C)C)C(=O)O)c(-c7ccc(Cl)cc7)c6s5)cc34)CC2)C1 [Compound 11]', 8.10);

Measured values drawn from patent US10800772B2 for this set.
